- Test name: Timed organ biodistribution of [^64Cu]Cu-DOTATATE by ex vivo gamma counting
- Type: in vivo, mice
- Particulars: mouse, tail, intravenous, 1.85 MBq, total radioactivity; female Apoe^-/- mice 12 weeks on Western Diet, 15 min after injection, median (IQR), N=3-8; read-out: Tissue radioactivity, tail
Metric: tissue uptake at 0.25 h (%ID/g)
Respond numerically; units are %ID/g and should not be typed.

// tissue uptake at 0.25 h value for C[C@@H](O)[C@H](NC(=O)[C@@H]1CSSC[C@H](NC(=O)[C@@H](Cc2ccccc2)NC(=O)CN2CCN(CC(=O)O)CCN(CC(=O)O)CCN(CC(=O)O)CC2)C(=O)N[C@@H](Cc2ccc(O)cc2)C(=O)N[C@H](Cc2c[nH]c3ccccc23)C(=O)N[C@@H](CCCCN)C(=O)N[C@@H]([C@@H](C)O)C(=O)N1)C(=O)O [[^64Cu]Cu-DOTATATE, metal not drawn] : 2.5

====

- Test name: Timed organ biodistribution of [^64Cu]Cu-DOTATATE by ex vivo gamma counting
- Type: in vivo, mice
- Particulars: mouse, heart, intravenous, 1.85 MBq, total radioactivity; female C57BL/6 mice, 120 min after injection, median (IQR), N=3-7; read-out: Tissue radioactivity, heart
Metric: tissue uptake at 2 h (%ID/g)
Respond numerically; units are %ID/g and should not be typed.

// tissue uptake at 2 h value for C[C@@H](O)[C@H](NC(=O)[C@@H]1CSSC[C@H](NC(=O)[C@@H](Cc2ccccc2)NC(=O)CN2CCN(CC(=O)O)CCN(CC(=O)O)CCN(CC(=O)O)CC2)C(=O)N[C@@H](Cc2ccc(O)cc2)C(=O)N[C@H](Cc2c[nH]c3ccccc23)C(=O)N[C@@H](CCCCN)C(=O)N[C@@H]([C@@H](C)O)C(=O)N1)C(=O)O [[^64Cu]Cu-DOTATATE, metal not drawn] : 0.7

====

- Test name: Timed organ biodistribution of [^64Cu]Cu-DOTATATE by ex vivo gamma counting
- Format: in vivo, mice
- Particulars: mouse, tail, intravenous, 1.85 MBq, total radioactivity; female Apoe^-/- mice 12 weeks on Western Diet, 120 min after injection, median (IQR), N=3-8; read-out: Tissue radioactivity, tail
Metric: tissue uptake at 2 h (%ID/g)
Respond numerically; units are %ID/g and should not be typed.

// tissue uptake at 2 h value for C[C@@H](O)[C@H](NC(=O)[C@@H]1CSSC[C@H](NC(=O)[C@@H](Cc2ccccc2)NC(=O)CN2CCN(CC(=O)O)CCN(CC(=O)O)CCN(CC(=O)O)CC2)C(=O)N[C@@H](Cc2ccc(O)cc2)C(=O)N[C@H](Cc2c[nH]c3ccccc23)C(=O)N[C@@H](CCCCN)C(=O)N[C@@H]([C@@H](C)O)C(=O)N1)C(=O)O [[^64Cu]Cu-DOTATATE, metal not drawn] : 2.7

====

- Test name: Timed organ biodistribution of [^64Cu]Cu-DOTATATE by ex vivo gamma counting
- Assay type: in vivo, mice
- Particulars: mouse, fat, intravenous, 1.85 MBq, total radioactivity; female Apoe^-/- mice 12 weeks on Western Diet, 1 min after injection, median (IQR), N=3-8; read-out: Tissue radioactivity, fat
Metric: tissue uptake at 1 min (%ID/g)
Respond numerically; units are %ID/g and should not be typed.

// tissue uptake at 1 min value for C[C@@H](O)[C@H](NC(=O)[C@@H]1CSSC[C@H](NC(=O)[C@@H](Cc2ccccc2)NC(=O)CN2CCN(CC(=O)O)CCN(CC(=O)O)CCN(CC(=O)O)CC2)C(=O)N[C@@H](Cc2ccc(O)cc2)C(=O)N[C@H](Cc2c[nH]c3ccccc23)C(=O)N[C@@H](CCCCN)C(=O)N[C@@H]([C@@H](C)O)C(=O)N1)C(=O)O [[^64Cu]Cu-DOTATATE, metal not drawn] : 0.3

====

- Test name: Timed organ biodistribution of [^64Cu]Cu-DOTATATE by ex vivo gamma counting
- Assay type: in vivo, mice
- Particulars: mouse, muscle, intravenous, 1.85 MBq, total radioactivity; female C57BL/6 mice, 30 min after injection, median (IQR), N=3-7; read-out: Tissue radioactivity, muscle
Metric: tissue uptake at 0.5 h (%ID/g)
Respond numerically; units are %ID/g and should not be typed.

// tissue uptake at 0.5 h value for C[C@@H](O)[C@H](NC(=O)[C@@H]1CSSC[C@H](NC(=O)[C@@H](Cc2ccccc2)NC(=O)CN2CCN(CC(=O)O)CCN(CC(=O)O)CCN(CC(=O)O)CC2)C(=O)N[C@@H](Cc2ccc(O)cc2)C(=O)N[C@H](Cc2c[nH]c3ccccc23)C(=O)N[C@@H](CCCCN)C(=O)N[C@@H]([C@@H](C)O)C(=O)N1)C(=O)O [[^64Cu]Cu-DOTATATE, metal not drawn] : 0.5

====

- Test name: Timed organ biodistribution of [^64Cu]Cu-DOTATATE by ex vivo gamma counting
- Format: in vivo, mice
- Particulars: mouse, kidneys, intravenous, 1.85 MBq, total radioactivity; female C57BL/6 mice, 5 min after injection, median (IQR), N=3-7; read-out: Tissue radioactivity, kidneys
Metric: tissue uptake at 5 min (%ID/g)
Respond numerically; units are %ID/g and should not be typed.

// tissue uptake at 5 min value for C[C@@H](O)[C@H](NC(=O)[C@@H]1CSSC[C@H](NC(=O)[C@@H](Cc2ccccc2)NC(=O)CN2CCN(CC(=O)O)CCN(CC(=O)O)CCN(CC(=O)O)CC2)C(=O)N[C@@H](Cc2ccc(O)cc2)C(=O)N[C@H](Cc2c[nH]c3ccccc23)C(=O)N[C@@H](CCCCN)C(=O)N[C@@H]([C@@H](C)O)C(=O)N1)C(=O)O [[^64Cu]Cu-DOTATATE, metal not drawn] : 20.5

====

- Test name: Timed organ biodistribution of [^64Cu]Cu-DOTATATE by ex vivo gamma counting
- Assay type: in vivo, mice
- Particulars: mouse, fat, intravenous, 1.85 MBq, total radioactivity; female C57BL/6 mice, 15 min after injection, median (IQR), N=3-7; read-out: Tissue radioactivity, fat
- Procedure: Wild-type and atherosclerotic animals were injected with approximately 1.85 MBq of [^64Cu]Cu-DOTATATE and euthanized at either 1, 5, 15, 30, 60 or 120 min after injection (Supplementary Fig. S1A) to evaluate the tracer’s biodistribution. […] Values were corrected for decay and normalized to tissue weight to express radioactivity concentration as percentage injected dose per gram (%ID/g). […] Plasma (supernatant) and cells (pellet) were gamma counted and expressed as percentage of total activity. […]
Metric: tissue uptake at 0.25 h (%ID/g)
Respond numerically; units are %ID/g and should not be typed.

// tissue uptake at 0.25 h value for C[C@@H](O)[C@H](NC(=O)[C@@H]1CSSC[C@H](NC(=O)[C@@H](Cc2ccccc2)NC(=O)CN2CCN(CC(=O)O)CCN(CC(=O)O)CCN(CC(=O)O)CC2)C(=O)N[C@@H](Cc2ccc(O)cc2)C(=O)N[C@H](Cc2c[nH]c3ccccc23)C(=O)N[C@@H](CCCCN)C(=O)N[C@@H]([C@@H](C)O)C(=O)N1)C(=O)O [[^64Cu]Cu-DOTATATE, metal not drawn] : 0.8

====

- Test name: Timed organ biodistribution of [^64Cu]Cu-DOTATATE by ex vivo gamma counting
- Type: in vivo, mice
- Particulars: mouse, pancreas, intravenous, 1.85 MBq, total radioactivity; female C57BL/6 mice, 60 min after injection, median (IQR), N=3-7; read-out: Tissue radioactivity, pancreas
Metric: tissue uptake at 1 h (%ID/g)
Respond numerically; units are %ID/g and should not be typed.

// tissue uptake at 1 h value for C[C@@H](O)[C@H](NC(=O)[C@@H]1CSSC[C@H](NC(=O)[C@@H](Cc2ccccc2)NC(=O)CN2CCN(CC(=O)O)CCN(CC(=O)O)CCN(CC(=O)O)CC2)C(=O)N[C@@H](Cc2ccc(O)cc2)C(=O)N[C@H](Cc2c[nH]c3ccccc23)C(=O)N[C@@H](CCCCN)C(=O)N[C@@H]([C@@H](C)O)C(=O)N1)C(=O)O [[^64Cu]Cu-DOTATATE, metal not drawn] : 4.8

====

- Test name: Timed organ biodistribution of [^64Cu]Cu-DOTATATE by ex vivo gamma counting
- Format: in vivo, mice
- Particulars: mouse, muscle, intravenous, 1.85 MBq, total radioactivity; female C57BL/6 mice, 60 min after injection, median (IQR), N=3-7; read-out: Tissue radioactivity, muscle
- Procedure: Wild-type and atherosclerotic animals were injected with approximately 1.85 MBq of [^64Cu]Cu-DOTATATE and euthanized at either 1, 5, 15, 30, 60 or 120 min after injection (Supplementary Fig. S1A) to evaluate the tracer’s biodistribution. […] Values were corrected for decay and normalized to tissue weight to express radioactivity concentration as percentage injected dose per gram (%ID/g). […] Plasma (supernatant) and cells (pellet) were gamma counted and expressed as percentage of total activity. […]
Metric: tissue uptake at 1 h
Quick note: number first, unit second.

// tissue uptake at 1 h value for C[C@@H](O)[C@H](NC(=O)[C@@H]1CSSC[C@H](NC(=O)[C@@H](Cc2ccccc2)NC(=O)CN2CCN(CC(=O)O)CCN(CC(=O)O)CCN(CC(=O)O)CC2)C(=O)N[C@@H](Cc2ccc(O)cc2)C(=O)N[C@H](Cc2c[nH]c3ccccc23)C(=O)N[C@@H](CCCCN)C(=O)N[C@@H]([C@@H](C)O)C(=O)N1)C(=O)O [[^64Cu]Cu-DOTATATE, metal not drawn] : 0.3 %ID/g
